Protein target, amino acids: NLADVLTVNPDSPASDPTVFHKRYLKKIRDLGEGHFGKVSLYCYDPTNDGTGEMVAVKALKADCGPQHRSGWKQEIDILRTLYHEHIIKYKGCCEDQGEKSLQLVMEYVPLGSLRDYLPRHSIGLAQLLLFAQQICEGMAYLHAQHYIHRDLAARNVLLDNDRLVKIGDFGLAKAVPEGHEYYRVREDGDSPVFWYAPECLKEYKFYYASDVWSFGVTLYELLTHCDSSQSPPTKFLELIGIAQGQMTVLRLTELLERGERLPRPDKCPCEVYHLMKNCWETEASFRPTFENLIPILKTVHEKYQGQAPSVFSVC
Parameter Ki: see the listing below.
quantity name: Ki (nM)

{"compound": "c1cc2c(ncc3ncn([C@H]4CC[C@H](NCC5CC5)CC4)c32)[nH]1 [Example 574]", "measured number": 125}
{"compound": "N#Cc1ccc(N[C@H]2CC[C@H](n3cnc4cnc5[nH]ccc5c43)CC2)nc1 [Example 176]", "measured number": 24.3}
{"compound": "OC(c1nc2cnc3[nH]ccc3c2n1C1CCCCC1)C1CC1 (racemic) [Example 940]", "measured number": 8.91}
{"compound": "Cc1nc2cnc3[nH]ccc3c2n1[C@H]1CC[C@@H](NCCC#N)C1 [Example 723]", "measured number": 94.6}
